- study-system: UniProtKB P21453
- Sequence (P21453 whole entry): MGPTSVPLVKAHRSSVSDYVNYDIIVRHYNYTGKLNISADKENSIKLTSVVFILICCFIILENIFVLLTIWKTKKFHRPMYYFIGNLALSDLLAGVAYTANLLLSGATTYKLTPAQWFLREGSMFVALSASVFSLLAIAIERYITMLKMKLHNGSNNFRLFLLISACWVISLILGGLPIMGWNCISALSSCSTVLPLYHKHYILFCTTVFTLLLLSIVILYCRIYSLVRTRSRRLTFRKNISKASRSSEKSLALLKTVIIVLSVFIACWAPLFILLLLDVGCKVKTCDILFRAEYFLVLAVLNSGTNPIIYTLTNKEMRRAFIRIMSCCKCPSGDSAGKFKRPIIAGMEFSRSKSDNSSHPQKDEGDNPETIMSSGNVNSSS
quantity: Ki (nM)
Respond with the bare value in nM.

Query: So what does the record say about Ki for `COCc1cc(-c2nc(-c3cccc(OCC(=O)O)c3)no2)ccc1-c1ccccc1C` ?
Reply: 0.8

---

- study-system: UniProt:P21453
- method: Displacement of [33P]-S1P from S1P1 receptor (unknown origin) expressed in CHO cell membranes
quantity: IC50 (nM)
Respond with the bare value in nM.

Query: So what does the record say about IC50 for CCCCCCCCc1ccc(CCC(N)(CO)CCP(=O)(O)O)cc1 (stereo unspecified) ?
Reply: 6

---

- method: Oral bioavailability in mouse
- Assay type: ADME, organism-based
- reported-conditions: in vivo
quantity: bioavailability

Query: So what does the record say about bioavailability for `CCCCCCCCc1ccc(CN2CC(C(=O)O)C2)cc1` ?
Reply: > 70%
